Measured log10 EC50 of individual entries
# target entity: Growth hormone secretagogue receptor type 1 (Homo sapiens, UniProt Q92847)
# Sequence (Q92847 whole entry): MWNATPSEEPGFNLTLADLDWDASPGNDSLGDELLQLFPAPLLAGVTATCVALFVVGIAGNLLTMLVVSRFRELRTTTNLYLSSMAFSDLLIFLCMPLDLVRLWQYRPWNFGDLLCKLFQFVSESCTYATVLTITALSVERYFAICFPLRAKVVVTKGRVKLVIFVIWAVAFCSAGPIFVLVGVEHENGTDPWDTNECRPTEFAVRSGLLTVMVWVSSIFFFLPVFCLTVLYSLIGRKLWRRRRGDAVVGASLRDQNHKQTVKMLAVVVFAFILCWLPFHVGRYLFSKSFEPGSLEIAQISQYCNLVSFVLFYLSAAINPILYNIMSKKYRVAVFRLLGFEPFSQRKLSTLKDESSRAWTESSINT
# test name: […] human growth hormone secretagogue receptor assessed as measuring intracellular calcium level by FLIPR assay
Note: values are log10 of EC50 expressed in nM.

These solved cases illustrate the format of a correct answer.
- structure string: "CC(C)(N)C(=O)N[C@H](COCc1ccccc1Cl)c1nnnn1CCOC(=O)NCCCCO"
  reported: -0.35
- structure string: "CC(C)(N)C(=O)N[C@H](COCC1CCCCC1)c1nnnn1CCOC(=O)NCCCCO"
  reported: 0.22
- structure string: "COc1ccccc1COC[C@@H](NC(=O)C(C)(C)N)c1nnnn1CCOC(=O)NCCCCO"
  reported: 0.05
- structure string: "CC(C)(N)C(=O)N[C@H](COCc1ccccc1-c1cccnc1)c1nnnn1CCOC(=O)NCCCCO"
  reported: 0.07
- structure string: "CC(C)(N)C(=O)N[C@H](COCc1ccc(OC(F)(F)F)cc1)c1nnnn1CCOC(=O)NCCCCO"
  reported: 1.52

Asked: For the compound Cc1noc(C)c1-c1ccccc1COC[C@@H](NC(=O)C(C)(C)N)c1nnnn1CCOC(=O)NCCCCO , report log10 EC50.
Given back: 0.02

Asked: Return reported log10 EC50. Input compound: CC(C)(N)C(=O)N[C@H](COCc1ccccc1C#N)c1nnnn1CCOC(=O)NCCCCO
Given back: 0.10

Asked: State its log10 EC50: CC(C)(N)C(=O)N[C@H](COCc1cccc(Cl)c1)c1nnnn1CCOC(=O)NCCCCO
Given back: 0.20

---

# Test system: Rattus norvegicus
# test name: Increase of growth hormone release in rat plasma at 1.74 umol/kg, iv after 15 mins by radioimmunoassay relative to control
# Type: functional
Note to self: values exactly at 1000% are Met. So Activity at or above 1000% is Met, below is Not met.

- structure string: "CC(C)(N)C(=O)N[C@H](COCc1ccccc1-c1ccccc1)c1nnnn1CCOC(=O)NCCCCO"
  target entity: "Rattus norvegicus"
  classification: "Not met"

Asked: Determine whether this compound has Activity no lower than 1000%: CC(C)(N)C(=O)N[C@H](COCc1ccccc1C#N)c1nnnn1CCOC(=O)NCCCCO
Given back: Not met

Asked: In plain terms: is recorded Activity at least 1000% for CC(C)(N)C(=O)N[C@H](COCC1CCCCC1)c1nnnn1CCOC(=O)NCCCCO ?
Given back: Met

Asked: Answer whether Activity of Cc1ccccc1COC[C@@H](NC(=O)C(C)(C)N)c1nnnn1CCOC(=O)NCCCCO is greater than or equal to 1000%.
Given back: Met

Asked: Decide: is the reported value of Activity for Cc1noc(C)c1-c1ccccc1COC[C@@H](NC(=O)C(C)(C)N)c1nnnn1CCOC(=O)NCCCCO equal to or greater than 1000%?
Given back: Met

Asked: Dear colleague, could you confirm whether CC(C)(N)C(=O)N[C@H](COCc1ccc(F)cc1F)c1nnnn1CCOC(=O)NCCCCO has Activity at or above 1000%?
Given back: Met

Asked: Say whether CC(C)(N)C(=O)N[C@H](COCc1ccccc1)c1nnnn1CCOC(=O)NCCCCO shows Activity of 1000% or more.
Given back: Not met

---

The entries below are paired with their reported EC50.
# target entity: Growth hormone secretagogue receptor type 1 (Homo sapiens)
# test name: […] human growth hormone secretagogue receptor assessed as measuring intracellular calcium level by FLIPR assay

Below are worked cases with known answers.
- structure string: "CC(C)(N)C(=O)N[C@H](COCc1cccc(Cl)c1Cl)c1nnnn1CCOC(=O)NCCCCO"
  EC50: "0.61 nM"
- structure string: "CC(C)(N)C(=O)N[C@H](COCc1ccccc1C(F)(F)F)c1nnnn1CCOC(=O)NCCCCO"
  EC50: "0.72 nM"
- structure string: "CC(C)(N)C(=O)N[C@H](COCc1cccc(C(F)(F)F)c1)c1nnnn1CCOC(=O)NCCCCO"
  EC50: "1.79 nM"

Asked: Enter measured EC50, system Growth hormone secretagogue receptor type 1 (Homo sapiens), for the compound shown: CC(C)(N)C(=O)N[C@H](COCc1ccccc1-c1ccccc1)c1nnnn1CCOC(=O)NCCCCO
Given back: 0.34 nM

Asked: Fill in EC50 for CC(C)(N)C(=O)N[C@H](COCc1cc(Cl)cc(Cl)c1)c1nnnn1CCOC(=O)NCCCCO tested with Growth hormone secretagogue receptor type 1 (Homo sapiens).
Given back: 6.75 nM

Asked: Give the observed EC50 of CC(C)(N)C(=O)N[C@H](COCc1cc(C(F)(F)F)cc(C(F)(F)F)c1)c1nnnn1CCOC(=O)NCCCCO for Growth hormone secretagogue receptor type 1 (Homo sapiens).
Given back: 34 nM

Asked: Find EC50 for CC(C)(N)C(=O)N[C@H](COCc1cccc(OC(F)(F)F)c1)c1nnnn1CCOC(=O)NCCCCO on Growth hormone secretagogue receptor type 1 (Homo sapiens) and write it down.
Given back: 3.1 nM

Asked: Enter measured EC50, system Growth hormone secretagogue receptor type 1 (Homo sapiens), for the compound shown: Cc1ccccc1COC[C@@H](NC(=O)C(C)(C)N)c1nnnn1CCOC(=O)NCCCCO
Given back: 0.51 nM

Asked: Using Growth hormone secretagogue receptor type 1 (Homo sapiens) as the test system, report measured EC50 of CC(C)(N)C(=O)N[C@H](COCc1ccc(F)cc1F)c1nnnn1CCOC(=O)NCCCCO .
Given back: 0.42 nM
